- study.system: MMP-1 (Homo sapiens)
- Sequence (P03956 100-469): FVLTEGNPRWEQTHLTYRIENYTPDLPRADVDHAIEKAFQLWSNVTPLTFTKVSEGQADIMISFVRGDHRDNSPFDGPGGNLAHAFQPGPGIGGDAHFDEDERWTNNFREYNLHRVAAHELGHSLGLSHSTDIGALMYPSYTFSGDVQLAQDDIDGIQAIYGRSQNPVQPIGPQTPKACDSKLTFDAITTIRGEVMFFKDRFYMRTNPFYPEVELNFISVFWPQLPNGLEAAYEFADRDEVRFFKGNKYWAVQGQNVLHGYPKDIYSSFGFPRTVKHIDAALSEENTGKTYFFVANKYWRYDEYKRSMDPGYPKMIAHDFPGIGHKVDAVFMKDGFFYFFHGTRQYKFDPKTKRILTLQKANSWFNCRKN
- method.description: MMP-1 inhibition (thiopeptide or fluorescent peptide substrate)
- Format: biochemical
- measurement.context: read-out: MMP1 IC50
- Protocol: These standard pharmacological test procedures are based on the cleavage of a thiopeptide substrates such as Ac-Pro-Leu-Gly(2-mercapto-4-methyl-pentanoyl)-Leu-Gly-OEt by the matrix metalloproteinases MMP-1, MMP-13 (collagenases) or MMP-9 (gelatinase), which results in the release of a substrate product that reacts colorimetrically with DTNB (5,5′-dithiobis(2-nitro-benzoic acid)). The enzyme activity is measured by the rate of the color increase. […]
readout.type: IC50 (µM)

>  <molecule>
CC#CCOc1ccc([S+]([O-])C2(C(=O)NO)CCN(C(=O)OC(C)(C)C)CC2)cc1 (centres unmarked) [Example 80]

>  <readout.type>
IC50

>  <reading.unit>
µM

>  <value.observed>
186

$$$$
>  <molecule>
CC#CCOc1ccc(S(=O)(=O)C2(C(=O)NO)CCN(Cc3ccc(C)cc3)CC2)cc1 [Example 9]

>  <readout.type>
IC50

>  <reading.unit>
µM

>  <value.observed>
2.1

$$$$
>  <molecule>
CC#CCOc1ccc(S(=O)(=O)C2(C(=O)NO)CCN(C(=O)c3cccnc3)CC2)cc1 [Example 70]

>  <readout.type>
IC50

>  <reading.unit>
µM

>  <value.observed>
2.96

$$$$

[I] CC#CCOc1ccc(S(=O)(=O)C2(C(=O)NO)CCN(C(=O)N3CCCC3)CC2)cc1 [Example 67]
[II] CC#CCOc1ccc(S(=O)(=O)C2(C(=O)NO)CCN(C(=O)C(C)(CO)CO)CC2)cc1 [Example 74]
Prompt line: Which numeric IC50 is bigger, that of I or that of II ? Respond using the label that marks the chosen record.
Response line: II
(II: 4.34 µM, I: 2.03 µM)
